# Assayed Target: T1, AAV8
# T1 construct: also called adeno-associated virus serotype 8
# Protocol: SPR, AAV on CM5 chip;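 further: surface plasmon resonance with AAV amine-coupled to the chip as ligand, nanobodies injected as analyte over a concentration series, rate constants and affinity fitted from binding curves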
Assay Metric: Kd (nM)
Report only the number, with the unit nM understood.

Binder: A4-037 (VHH) VHH: VQLQESGGGLVQPGGSLRLSCAASGSIFSINTMGWYRQAPGKQRELVATVTRGGSTNYAGSVKGRFTISRDNAKNTVYLQMNSLRPEDTAVYYCHLDEVRQSSWTTSNIWGQGTQVTVSS
Unit Of Measurement: nM
Kd: 11.6

Continue with the binder presented below.
Field request: Kd | item: A4-029 (VHH) VHH: VQLQESGGGLVQPGGSLRLSCAASGSNFSINTMGWYRQRAGKQRELVATVTRGGSTNYADSVKGRFTISRDNAKNTVYLQMNSLRPEDTAVYYCHIDEIRESSWTTSNLWGQGTQVTVSS
0.486
